tested on: CDK5; details: concentration: 1 μM, replicates: in singlicate; n = 1;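 further: KINOMEscan kinase panel screen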
Property: %Inh (%)
Value expressed in %; do not type the unit.

// worked examples, %Inh included
> print(dat)
                                   compound  property  result.units  recorded.value
1  Cc1ccc(NC(=O)Nc2ccccc2)cc1-c1ccc(C(=O)Nc2ccncc2)cc1      %Inh             %               0
2  NS(=O)(=O)c1cccc(N/C=C2\C(=O)Nc3ccc(S(=O)(=O)Cc4c(Cl)cccc4Cl)cc32)c1      %Inh             %               0

Prompt: Fill in the blank: the reported %Inh of Cl.Cl.Cl.N#Cc1ccc(CCNc2nccc(-c3cccc(CN4CCNCC4)c3)n2)cc1 is ____.
Completion: 0

Prompt: Another compound to check: Cc1ccccc1-c1cc(-c2c[nH]nc2-c2ccccn2)ccn1
Completion: 0
